protocol description: RP, Waters ACQUITY UPLC BEH C18, 100 × 1 mm, 1.7 µm, 50 °C, 0.3 mL/min, estimated dead time 0.17 min; A: water + 0.1% formic acid + 20 mM ammonium formate; B: methanol + 0.1% formic acid + 20 mM ammonium formate; gradient (min/%B) 0/0 15/100 21/100 22/0 30/0
applied conditions: stereoisomer not certain
Lab note: compare LC retention time with 10 min, writing class 1 if less and class 0 if equal or more.

Strictly below 10 min: is that where LC retention time of COP(=S)(S)OC [Dimethyldithiophosphate] sits?
class 1

Strictly below 10 min: is that where LC retention time of COP(=O)(OC)OC1=C(Cl)C2C=CCC12 (centres undefined) sits?
class 0

Strictly below 10 min: is that where LC retention time of CC(=O)N1N=C(c2ccc(N)cc2)c2cc3c(cc2CC1C)OCO3 (centres undefined) sits?
class 0

Strictly below 10 min: is that where LC retention time of "CN(C)C(=O)NC1CCCCC1" sits?
class 0

Strictly below 10 min: is that where LC retention time of "CCCCOc1ccc(CC(=O)NO)cc1" sits?
class 0

Strictly below 10 min: is that where LC retention time of "Cc1cccc(C)c1N(Cn1cccn1)C(=O)C(=O)O" sits?
class 1

Strictly below 10 min: is that where LC retention time of "CCCCCCCCCCSCCOCCO" sits?
class 0

Strictly below 10 min: is that where LC retention time of CC(C)NCC(O)COc1ccc(COCCOC(C)C)cc1 (centres undefined) sits?
class 0

Strictly below 10 min: is that where LC retention time of C#CCOc1ccc(CCNC(=O)C(OCC#C)c2ccc(Cl)cc2)cc1OC (centres undefined) sits?
class 0

* * *

protocol description: RP, Waters ACQUITY UPLC BEH C18, 100 × 1 mm, 1.7 µm, 50 °C, 0.3 mL/min, estimated dead time 0.17 min; A: water + 0.1% formic acid + 20 mM ammonium formate; B: methanol + 0.1% formic acid + 20 mM ammonium formate; gradient (min/%B) 0/0 15/100 21/100 22/0 30/0
applied conditions: stereoisomer not certain
Category key, based on recorded LC retention time: range 1: < 7 min; range 2: ≥ 7 min and < 10 min; range 3: ≥ 10 min

Bin? "CCOC(=O)c1cn2nc(OP(=S)(OCC)OCC)cc2nc1C"
range 3

Bin? "Nc1ccc(S(=O)(=O)Nc2ncccn2)cc1"
range 1

Bin? "CNC(=O)Oc1cc(C)c(S(C)(=O)=O)c(C)c1"
range 2

Bin? CN(Cc1nc2c(N)nc(N)nc2[nH]c1=O)c1ccc(C(=O)NC(CCC(=O)O)C(=O)O)cc1 (centres undefined) [7-Hydroxymethotrexat]
range 2

Bin? "COc1cc2ccc(=O)oc2c(O)c1OC"
range 2

Bin? COC(C)C(O)(C(=O)OCC1=CCN2CCC(O)C12)C(C)(C)O (centres undefined)
range 1

Bin? O=C(O)c1cc(Oc2ccc(Cl)cc2Cl)ccc1[N+](=O)[O-] [Bifenox free acid]
range 3

Bin? O=C(Nc1ccc(Cl)c(Cl)c1)c1cc(Cl)cc(Cl)c1O [Tetrachlorosalicylanilide]
range 3

Bin? "Cc1nccc2ccccc12"
range 1

* * *

protocol description: RP, Waters ACQUITY UPLC BEH C18, 100 × 1 mm, 1.7 µm, 50 °C, 0.3 mL/min, estimated dead time 0.17 min; A: water + 10 mM ammonium bicarbonate; B: 10% water + 90% methanol + 10 mM ammonium bicarbonate; gradient (min/%B) 0/0 15/100 21/100 22/0 30/0
applied conditions: stereoisomer not certain
Answer Criterion not met if LC retention time is under 10 min, and Criterion met if it is 10 min or more.

Does the reported LC retention time for C#CC1(OC(C)=O)CCC2C3CCC4=CC(=O)CCC4C3CCC21C (stereo not drawn) [Norethisterone acetate] fall at or above the 10 min mark?
Criterion met

Does the reported LC retention time for "COc1ncnc(NS(=O)(=O)c2ccc(N)cc2)c1OC" fall at or above the 10 min mark?
Criterion not met

Does the reported LC retention time for CC(=O)OC1(C(C)=O)CCC2C3C=C(C)C4=CC(=O)CCC4(C)C3CCC21C (stereo not drawn) [Megestrol-17-acetate] fall at or above the 10 min mark?
Criterion met

Does the reported LC retention time for CC12CCC(=O)C=C1C1CC1C1C2CCC2(C)C1C1CC1C21CCC(=O)O1 (stereo not drawn) fall at or above the 10 min mark?
Criterion met

Does the reported LC retention time for "Nc1ccc(S(=O)(=O)Nc2ccccn2)cc1" fall at or above the 10 min mark?
Criterion not met

Does the reported LC retention time for "CN1COCN(Cc2cnc(Cl)s2)C1=N" fall at or above the 10 min mark?
Criterion not met

Does the reported LC retention time for "CCOP(=O)(OCC)OC(=CCl)c1ccc(Cl)cc1Cl" fall at or above the 10 min mark?
Criterion met

Does the reported LC retention time for CC(C)NCC(O)COc1ccc(C(=O)O)cc1 (stereo not drawn) fall at or above the 10 min mark?
Criterion met

Does the reported LC retention time for CC(CN(C)C)CN1c2ccccc2CCc2ccccc21 (stereo not drawn) fall at or above the 10 min mark?
Criterion met

Does the reported LC retention time for CC=C(C)C(=O)OC1CCN2CC=C(COC(=O)C(O)(C(C)O)C(C)(C)O)C12 (stereo not drawn) fall at or above the 10 min mark?
Criterion met

Does the reported LC retention time for "COC(=O)Nc1nc2ccc(C(=O)c3ccccc3)cc2[nH]1" fall at or above the 10 min mark?
Criterion met

Does the reported LC retention time for CCCCCCCCCCCCCCOS(=O)(=O)O [Tetradecylsulfate] fall at or above the 10 min mark?
Criterion met

Does the reported LC retention time for "O=C1CC2(CCCCC2)CN1" fall at or above the 10 min mark?
Criterion met

Does the reported LC retention time for CCCCCCCCCC(=O)N(C)C [N,N-Dimethyldecan-1-amide] fall at or above the 10 min mark?
Criterion met

Does the reported LC retention time for CC(=O)C1(O)CCC2C3CC(C)C4=CC(=O)C=CC4(C)C3(F)C(O)CC21C (stereo not drawn) fall at or above the 10 min mark?
Criterion met

Does the reported LC retention time for "CCOC(=O)CCN(Cc1ccccc1)SN(C)C(=O)ON=C(C)SC" fall at or above the 10 min mark?
Criterion met

Does the reported LC retention time for CC12CCC3C(CCC4=CC(=O)CCC43C)C1CCC2=O (stereo not drawn) fall at or above the 10 min mark?
Criterion met

Does the reported LC retention time for "c1ccc2scnc2c1" fall at or above the 10 min mark?
Criterion met

Does the reported LC retention time for "Oc1ccc(C=Cc2cc(O)cc(O)c2)cc1" fall at or above the 10 min mark?
Criterion met

Does the reported LC retention time for "COc1ccc(C(=CC(=O)N2CCOCC2)c2ccc(Cl)cc2)cc1OC" fall at or above the 10 min mark?
Criterion met

Does the reported LC retention time for CC=C1C2C=C(C)CC1(N)c1ccc(=O)[nH]c1C2 (stereo not drawn) fall at or above the 10 min mark?
Criterion met

Does the reported LC retention time for "Cn1c(=O)c2[nH]cnc2n(C)c1=O" fall at or above the 10 min mark?
Criterion not met

Does the reported LC retention time for "COP(=S)(OC)Oc1ccc(Sc2ccc(OP(=S)(OC)OC)cc2)cc1" fall at or above the 10 min mark?
Criterion met

Does the reported LC retention time for CCC(C)OC(=O)N1CCCCC1CCO (stereo not drawn) fall at or above the 10 min mark?
Criterion met

Does the reported LC retention time for O=C1Nc2ccc(Cl)cc2C(c2ccccc2)=NC1O (stereo not drawn) fall at or above the 10 min mark?
Criterion met

Does the reported LC retention time for CN(Cc1nc2c(N)nc(N)nc2[nH]c1=O)c1ccc(C(=O)NC(CCC(=O)O)C(=O)O)cc1 (stereo not drawn) [7-Hydroxymethotrexat] fall at or above the 10 min mark?
Criterion not met

Does the reported LC retention time for COP(=S)(S)OC [Dimethyldithiophosphate] fall at or above the 10 min mark?
Criterion not met

Does the reported LC retention time for CC(C)C(=O)OCC(C)(C)C(OC(=O)C(C)C)C(C)C (stereo not drawn) [2,2,4-Trimethyl-1,3-pentanediol diisobutyrate] fall at or above the 10 min mark?
Criterion met

Does the reported LC retention time for "CCCc1nc2c(C)cc(-c3nc4ccccc4n3C)cc2n1Cc1ccc(-c2ccccc2C(=O)O)cc1" fall at or above the 10 min mark?
Criterion met

Does the reported LC retention time for "OCCc1ccccn1" fall at or above the 10 min mark?
Criterion not met

Does the reported LC retention time for "CS(=O)(=O)c1ccc(C(=O)C2C(=O)CCCC2=O)c(Cl)c1COCC(F)(F)F" fall at or above the 10 min mark?
Criterion met

Does the reported LC retention time for COc1ccc2cc(C(C)C(=O)O)ccc2c1 (stereo not drawn) fall at or above the 10 min mark?
Criterion met

Does the reported LC retention time for CC(C)N(C(=O)SCC(Cl)=C(Cl)Cl)C(C)C [Triallate] fall at or above the 10 min mark?
Criterion met

Does the reported LC retention time for CCCCC(CC)COC(=O)CC(C(=O)OCC(CC)CCCC)S(=O)(=O)O (stereo not drawn) [Dioctylsulfosuccinate] fall at or above the 10 min mark?
Criterion met

Does the reported LC retention time for "O=C1CCCCCCCCCCC1" fall at or above the 10 min mark?
Criterion met

Does the reported LC retention time for "O=Cc1ccccc1Nc1ccccc1Cl" fall at or above the 10 min mark?
Criterion met

Does the reported LC retention time for NC(=O)c1ccc(N)cc1 [4-Aminobenzamide] fall at or above the 10 min mark?
Criterion not met

Does the reported LC retention time for CNCC(O)c1cccc(O)c1 (stereo not drawn) fall at or above the 10 min mark?
Criterion not met
